B1: TPR t1 (parent)
chain: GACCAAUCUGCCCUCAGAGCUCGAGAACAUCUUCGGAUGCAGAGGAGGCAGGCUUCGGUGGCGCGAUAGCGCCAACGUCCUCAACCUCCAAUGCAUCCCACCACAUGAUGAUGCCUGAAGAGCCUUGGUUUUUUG

Variants of: B1
TEST_DETAILS: polymerase ribozyme fitness, log enrichment relative to wild type (log ratio); higher = more active; in vitro selection for triplet polymerase activity
Label no (0) if polymerase ribozyme fitness (log ratio) falls below -3; label yes (1) in every other case.

C15U G58C C72A C102G G107U A121C :: no (0)
G61A C97G C124U :: yes (1)
C40A G71C C101A U131C :: no (0)
A37G G57C G58U G120U :: yes (1)
G19A A43U C49U C124U :: yes (1)

Request: Determine whether this variant has polymerase ribozyme fitness (log ratio) no lower than -3: U78C U81A U87G C123G
Result: yes (1)
